For each entry below, report its Median dimer activity (recombination on loxP) value.
Molecular target: T1, Cre recombinase monomer with Q311R mutation
T1 chain: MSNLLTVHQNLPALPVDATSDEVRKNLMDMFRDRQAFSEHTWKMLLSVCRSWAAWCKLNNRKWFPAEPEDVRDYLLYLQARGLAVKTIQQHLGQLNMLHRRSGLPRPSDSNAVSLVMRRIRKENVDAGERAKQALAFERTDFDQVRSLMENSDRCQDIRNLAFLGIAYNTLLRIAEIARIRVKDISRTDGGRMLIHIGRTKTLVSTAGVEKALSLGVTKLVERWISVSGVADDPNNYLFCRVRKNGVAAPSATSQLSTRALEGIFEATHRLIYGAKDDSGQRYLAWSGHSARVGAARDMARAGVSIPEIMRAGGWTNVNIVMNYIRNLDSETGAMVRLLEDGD
Answers are plain numbers, in %.

Supply measured Median dimer activity (recombination on loxP) of Cre recombinase monomer with K201H mutation (protein) MSNLLTVHQNLPALPVDATSDEVRKNLMDMFRDRQAFSEHTWKMLLSVCRSWAAWCKLNNRKWFPAEPEDVRDYLLYLQARGLAVKTIQQHLGQLNMLHRRSGLPRPSDSNAVSLVMRRIRKENVDAGERAKQALAFERTDFDQVRSLMENSDRCQDIRNLAFLGIAYNTLLRIAEIARIRVKDISRTDGGRMLIHIGRTHTLVSTAGVEKALSLGVTKLVERWISVSGVADDPNNYLFCRVRKNGVAAPSATSQLSTRALEGIFEATHRLIYGAKDDSGQRYLAWSGHSARVGAARDMARAGVSIPEIMQAGGWTNVNIVMNYIRNLDSETGAMVRLLEDGD in your reply.
94

Kindly review the next protein as well.
Specify reported Median dimer activity (recombination on loxP) for the protein shown: Cre recombinase monomer with K201W mutation (protein) MSNLLTVHQNLPALPVDATSDEVRKNLMDMFRDRQAFSEHTWKMLLSVCRSWAAWCKLNNRKWFPAEPEDVRDYLLYLQARGLAVKTIQQHLGQLNMLHRRSGLPRPSDSNAVSLVMRRIRKENVDAGERAKQALAFERTDFDQVRSLMENSDRCQDIRNLAFLGIAYNTLLRIAEIARIRVKDISRTDGGRMLIHIGRTWTLVSTAGVEKALSLGVTKLVERWISVSGVADDPNNYLFCRVRKNGVAAPSATSQLSTRALEGIFEATHRLIYGAKDDSGQRYLAWSGHSARVGAARDMARAGVSIPEIMQAGGWTNVNIVMNYIRNLDSETGAMVRLLEDGD
95
